target: HiBit-BRM fusion protein (Homo sapiens, UniProt P51531); construct: expressed in transfected cells; assay: HiBiT-BRM cell-based degradation assay (Nano-Glo HiBiT Lytic Detection, 24 h); details: stable HeLa cell line expressing HiBiT-BRM, read-out: BRM HiBit Degradation IC50
Sequence (P51531 whole entry, the tested form may be a part): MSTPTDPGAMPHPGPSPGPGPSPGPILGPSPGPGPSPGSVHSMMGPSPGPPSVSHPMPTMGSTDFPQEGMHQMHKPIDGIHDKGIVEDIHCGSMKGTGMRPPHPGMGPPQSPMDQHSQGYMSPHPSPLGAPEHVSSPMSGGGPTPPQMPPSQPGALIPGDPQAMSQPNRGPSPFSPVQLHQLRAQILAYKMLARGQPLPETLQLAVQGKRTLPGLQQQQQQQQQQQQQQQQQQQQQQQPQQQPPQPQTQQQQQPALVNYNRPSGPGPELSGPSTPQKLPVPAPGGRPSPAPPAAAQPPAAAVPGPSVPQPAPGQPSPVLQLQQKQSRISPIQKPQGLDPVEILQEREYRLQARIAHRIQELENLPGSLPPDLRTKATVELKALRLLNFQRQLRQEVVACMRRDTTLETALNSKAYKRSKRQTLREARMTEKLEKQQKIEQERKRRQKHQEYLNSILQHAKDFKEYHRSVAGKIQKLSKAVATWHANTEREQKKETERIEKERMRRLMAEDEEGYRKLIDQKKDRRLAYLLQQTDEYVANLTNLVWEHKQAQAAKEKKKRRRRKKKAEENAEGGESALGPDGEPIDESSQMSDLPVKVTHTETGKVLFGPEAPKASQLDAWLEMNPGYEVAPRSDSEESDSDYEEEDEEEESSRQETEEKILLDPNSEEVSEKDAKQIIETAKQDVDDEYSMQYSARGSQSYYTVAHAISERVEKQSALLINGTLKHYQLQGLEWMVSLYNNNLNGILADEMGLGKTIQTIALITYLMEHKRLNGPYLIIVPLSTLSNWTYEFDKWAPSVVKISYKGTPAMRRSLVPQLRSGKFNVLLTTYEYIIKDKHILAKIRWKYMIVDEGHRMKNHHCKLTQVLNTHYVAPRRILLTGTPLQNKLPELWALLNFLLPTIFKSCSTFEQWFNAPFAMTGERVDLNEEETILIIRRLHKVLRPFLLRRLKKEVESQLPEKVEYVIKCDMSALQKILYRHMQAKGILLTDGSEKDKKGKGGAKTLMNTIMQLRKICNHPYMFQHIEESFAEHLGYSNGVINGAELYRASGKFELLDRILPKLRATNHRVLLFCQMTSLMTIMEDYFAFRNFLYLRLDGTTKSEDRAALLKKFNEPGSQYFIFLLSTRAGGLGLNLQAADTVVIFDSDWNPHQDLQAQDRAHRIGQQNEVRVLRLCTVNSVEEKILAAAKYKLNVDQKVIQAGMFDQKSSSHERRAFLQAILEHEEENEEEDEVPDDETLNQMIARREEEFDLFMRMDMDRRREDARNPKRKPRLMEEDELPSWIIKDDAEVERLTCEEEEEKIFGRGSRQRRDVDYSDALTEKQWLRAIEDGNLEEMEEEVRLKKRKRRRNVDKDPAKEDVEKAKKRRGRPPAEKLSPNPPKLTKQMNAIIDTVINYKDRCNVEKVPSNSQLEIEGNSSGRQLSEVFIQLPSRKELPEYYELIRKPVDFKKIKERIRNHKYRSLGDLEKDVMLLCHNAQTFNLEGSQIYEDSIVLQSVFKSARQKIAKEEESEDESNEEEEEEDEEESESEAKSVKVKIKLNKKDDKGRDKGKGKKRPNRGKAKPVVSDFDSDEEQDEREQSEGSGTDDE
Assign DC50 to each entry below.

// sample Cc1ncsc1-c1ccc([C@H](C)NC(=O)[C@@H]2C[C@@H](O)CN2C(=O)[C@@H](c2cc(N3CC4(CC(c5cc6cc(-c7ccccc7O)nnc6s5)C4)C3)no2)C(C)C)cc1 (single isomer, unassigned) , its DC50 was < 10 nM

// sample `Cc1ncsc1-c1ccc([C@H](C)NC(=O)[C@@H]2C[C@@H](O)CN2C(=O)[C@@H](c2cc(-c3ccnc(N4CC[C@H](c5sc6nnc(-c7ccccc7O)cc6c5C)C4)n3)no2)C(C)C)cc1` , its DC50 was > 10 nM

// sample Cc1nc(N2CCC(c3sc4nnc(-c5ccccc5O)cc4c3C)CC2)ccc1-c1noc(C(C(=O)N2C[C@H](O)C[C@H]2C(=O)N[C@@H](C)c2ccc(-c3scnc3C)cc2)C(C)C)c1Cl (stereo in doubt) , its DC50 was > 10 nM

// sample `Cc1ncsc1-c1ccc([C@H](C)NC(=O)[C@@H]2C[C@@H](O)CN2C(=O)[C@@H](c2cc(N3CCC4(CC3)CC(c3cc5nnc(-c6ccccc6O)cc5s3)C4)no2)C(C)C)cc1` , its DC50 was < 10 nM

// sample `Cc1ncsc1-c1ccc([C@H](C)NC(=O)[C@@H]2C[C@@H](O)CN2C(=O)[C@@H](c2cc(-c3cnc(N4C[C@H]5C[C@@H](C4)[C@H]5c4cc5cc(-c6ccccc6O)nnc5s4)nc3)no2)C(C)C)cc1` , its DC50 was > 100 nM

// sample `Cc1ncsc1-c1ccc([C@H](C)NC(=O)[C@@H]2C[C@@H](O)CN2C(=O)[C@@H](c2cc(N3CCC4(CC3)CC(c3sc5nnc(-c6ccccc6O)cc5c3C)C4)no2)C(C)C)cc1` , its DC50 was > 10 nM

// sample `Cc1ncsc1-c1ccc([C@H](C)NC(=O)[C@@H]2C[C@@H](O)CN2C(=O)[C@@H](c2cc(-c3cnc(N4CCC(O)(c5sc6nnc(-c7ccccc7O)cc6c5C)CC4)nc3)no2)C(C)C)cc1` , its DC50 was > 10 nM

// sample Cc1cc(-c2cc([C@H](C(=O)N3C[C@H](O)C[C@H]3C(=O)N[C@@H](C)c3ccc(-c4scnc4C)cc3)C(C)C)on2)cnc1N1CCC(c2cc3cc(-c4ccccc4O)nnc3s2)CC1 (single isomer, unassigned) , its DC50 was > 10 nM

// sample `Cc1ncsc1-c1ccc([C@H](C)NC(=O)[C@@H]2C[C@@H](O)CN2C(=O)[C@@H](c2cc(-c3ccc(N4CCC(c5sc6nnc(-c7ccccc7O)cc6c5C)CC4)nc3)no2)C(C)C)cc1` , its DC50 was < 10 nM

* * *

molecular target: HiBit-BRG1 fusion protein (Homo sapiens, UniProt P51532); construct: expressed in transfected cells; assay: HiBiT-BRG1 cell-based degradation assay (Nano-Glo HiBiT Lytic Detection, 24 h); conditions: stable HeLa cell line expressing HiBit-BRG1 and LgBit, read-out: BRMG1 HiBit Degradation IC50
Sequence (P51532 whole entry, the tested form may be a part): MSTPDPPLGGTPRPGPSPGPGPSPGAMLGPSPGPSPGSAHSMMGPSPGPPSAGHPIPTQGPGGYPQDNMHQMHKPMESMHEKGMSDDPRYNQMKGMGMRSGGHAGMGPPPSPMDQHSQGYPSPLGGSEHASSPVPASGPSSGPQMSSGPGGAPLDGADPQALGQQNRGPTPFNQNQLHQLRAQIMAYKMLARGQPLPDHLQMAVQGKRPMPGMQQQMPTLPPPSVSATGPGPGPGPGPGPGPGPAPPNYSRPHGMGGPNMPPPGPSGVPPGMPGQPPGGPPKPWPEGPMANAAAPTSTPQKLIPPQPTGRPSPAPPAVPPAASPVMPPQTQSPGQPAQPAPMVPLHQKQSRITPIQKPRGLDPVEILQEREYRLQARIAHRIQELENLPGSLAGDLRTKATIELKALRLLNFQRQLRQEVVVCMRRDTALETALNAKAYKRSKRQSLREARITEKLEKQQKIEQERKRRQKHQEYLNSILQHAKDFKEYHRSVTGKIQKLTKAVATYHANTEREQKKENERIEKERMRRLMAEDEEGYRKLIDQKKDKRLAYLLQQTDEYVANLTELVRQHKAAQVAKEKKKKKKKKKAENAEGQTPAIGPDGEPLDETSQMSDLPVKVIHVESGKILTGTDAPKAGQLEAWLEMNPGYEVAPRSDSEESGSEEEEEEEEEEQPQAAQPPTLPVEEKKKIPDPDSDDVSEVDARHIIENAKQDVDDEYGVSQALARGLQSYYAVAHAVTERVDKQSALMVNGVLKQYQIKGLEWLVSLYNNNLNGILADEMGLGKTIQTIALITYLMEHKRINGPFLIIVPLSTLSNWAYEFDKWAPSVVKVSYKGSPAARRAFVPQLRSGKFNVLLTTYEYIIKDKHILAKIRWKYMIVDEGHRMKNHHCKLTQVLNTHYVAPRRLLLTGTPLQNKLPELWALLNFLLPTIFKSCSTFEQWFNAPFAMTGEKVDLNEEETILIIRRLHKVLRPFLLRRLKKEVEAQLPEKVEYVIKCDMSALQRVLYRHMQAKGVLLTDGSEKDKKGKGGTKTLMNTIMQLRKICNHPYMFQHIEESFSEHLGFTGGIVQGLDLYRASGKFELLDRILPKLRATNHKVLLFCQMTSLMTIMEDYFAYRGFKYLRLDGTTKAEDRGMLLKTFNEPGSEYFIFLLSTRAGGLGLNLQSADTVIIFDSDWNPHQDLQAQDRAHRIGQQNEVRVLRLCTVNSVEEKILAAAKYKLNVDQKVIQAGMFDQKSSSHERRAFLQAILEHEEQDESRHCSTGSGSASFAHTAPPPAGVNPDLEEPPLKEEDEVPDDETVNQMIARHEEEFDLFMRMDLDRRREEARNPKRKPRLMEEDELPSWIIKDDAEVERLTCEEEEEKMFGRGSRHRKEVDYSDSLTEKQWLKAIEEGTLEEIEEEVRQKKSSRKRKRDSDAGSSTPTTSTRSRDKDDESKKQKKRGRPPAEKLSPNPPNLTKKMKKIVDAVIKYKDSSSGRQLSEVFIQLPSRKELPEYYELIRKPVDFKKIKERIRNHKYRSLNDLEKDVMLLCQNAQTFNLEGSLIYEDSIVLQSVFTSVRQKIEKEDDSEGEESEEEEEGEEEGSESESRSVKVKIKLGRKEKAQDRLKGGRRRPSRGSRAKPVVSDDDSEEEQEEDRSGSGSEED
Outcome measure: DC50

// sample Cc1ncsc1-c1ccc([C@H](C)NC(=O)[C@@H]2C[C@@H](O)CN2C(=O)[C@@H](c2cc(N3CC4(CC(c5cc6cc(-c7ccccc7O)nnc6s5)C4)C3)no2)C(C)C)cc1 (single isomer, unassigned) , its DC50 was > 10 nM

// sample `Cc1ncsc1-c1ccc([C@H](C)NC(=O)[C@@H]2C[C@@H](O)CN2C(=O)[C@@H](c2cc(-c3ccc(N4CCC(c5sc6nnc(-c7ccccc7O)cc6c5C)CC4)cc3F)no2)C(C)C)cc1` , its DC50 was > 1000 nM

// sample `Cc1ncsc1-c1ccc([C@H](C)NC(=O)[C@@H]2C[C@@H](O)CN2C(=O)[C@@H](c2cc(-c3ccc(N4CCC(c5sc6nnc(-c7ccccc7O)cc6c5C)CC4)nc3)no2)C(C)C)cc1` , its DC50 was > 1000 nM

// sample Cc1ncsc1-c1ccc([C@H](C)NC(=O)[C@@H]2C[C@@H](O)CN2C(=O)[C@@H](c2cc(Oc3cnc(N4CCC(c5sc6nnc(-c7ccccc7O)cc6c5C)CC4)nc3)no2)C(C)C)cc1 (single isomer, unassigned) , its DC50 was > 1000 nM

// sample Cc1ncsc1-c1ccc([C@H](C)NC(=O)[C@@H]2C[C@@H](O)CN2C(=O)[C@@H](c2cc(-c3cnc(N4CC(c5sc6nnc(-c7ccccc7O)cc6c5C)C4)nc3)no2)C(C)C)cc1 (single isomer, unassigned) , its DC50 was > 1000 nM

// sample Cc1cc(-c2cc([C@H](C(=O)N3C[C@H](O)C[C@H]3C(=O)N[C@@H](C)c3ccc(-c4scnc4C)cc3)C(C)C)on2)cnc1N1CCC(c2cc3cc(-c4ccccc4O)nnc3s2)CC1 (single isomer, unassigned) , its DC50 was > 1000 nM

// sample `Cc1ncsc1-c1ccc([C@H](C)NC(=O)[C@@H]2C[C@@H](O)CN2C(=O)[C@@H](c2cc(N3CCC4(CC[C@@H](c5sc6nnc(-c7ccccc7O)cc6c5C)C4)CC3)no2)C(C)C)cc1` , its DC50 was > 100 nM

// sample `Cc1ncsc1-c1ccc([C@H](C)NC(=O)[C@@H]2C[C@@H](O)CN2C(=O)[C@@H](c2cc(-c3ccc(N4CC(c5sc6nnc(-c7ccccc7O)cc6c5C)C4)nc3)no2)C(C)C)cc1` , its DC50 was > 1000 nM

// sample Cc1ncsc1-c1ccc([C@H](C)NC(=O)[C@@H]2C[C@@H](O)CN2C(=O)[C@@H](c2cc(-c3cnc(N4C[C@@H]5[C@H](C4)[C@H]5c4sc5nnc(-c6ccccc6O)cc5c4C)nc3)no2)C(C)C)cc1 (stereo in doubt) , its DC50 was > 100 nM

Origin of measurements: patent US20250304596A1
